- target-desc: Fyn (UniProt P06241)
- Sequence (P06241 whole entry, looked up): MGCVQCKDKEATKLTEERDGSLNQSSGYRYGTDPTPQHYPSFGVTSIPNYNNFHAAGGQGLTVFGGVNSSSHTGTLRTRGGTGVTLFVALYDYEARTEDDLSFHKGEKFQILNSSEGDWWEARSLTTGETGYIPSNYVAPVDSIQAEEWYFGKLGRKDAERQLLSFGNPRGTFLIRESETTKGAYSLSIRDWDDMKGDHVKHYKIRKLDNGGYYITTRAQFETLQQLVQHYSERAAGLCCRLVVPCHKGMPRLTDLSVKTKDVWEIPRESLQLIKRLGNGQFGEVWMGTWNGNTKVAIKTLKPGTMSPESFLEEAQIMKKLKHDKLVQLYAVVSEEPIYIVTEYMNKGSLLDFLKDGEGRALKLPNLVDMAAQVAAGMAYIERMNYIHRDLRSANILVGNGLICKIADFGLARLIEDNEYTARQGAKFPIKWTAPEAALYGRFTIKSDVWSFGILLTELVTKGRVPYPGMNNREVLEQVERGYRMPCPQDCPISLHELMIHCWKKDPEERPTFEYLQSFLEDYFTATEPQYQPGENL
- assay-method-text: phosphorylation enrichment, bacterial display (enrichment ratio); higher = better substrate or ligand; peptides without Tyr show the background;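 note: 11-residue human phosphosite peptides and single-mutation variants displayed on the E. coli surface, counted by deep sequencing, each peptide's frequency after selection divided by its frequency in the unselected input library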;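 note: frequency after pTyr selection over input frequency; kinase dosed for 20-30% of maximal phosphorylation in three min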
Note to self: values exactly at 0.6 are class 1. So phosphorylation enrichment at or above 0.6 is class 1, below is class 0.

1. LFLALYTGLVR [PIGB_Y402_H407R]; class 1
2. EKEKKYMLPLD [DNM2_Y563]; class 1
3. MAALSYVSEIG [BPIFB2_Y36_K31M]; class 0
4. RPSRQYATRDV [SCAMP3_Y35_L38R]; class 0
5. KFRREYILSLE [GPC3_Y299_W296R_YF]; class 0
6. CTTIHYNYMYN [TP53_Y234_C238Y]; class 0
7. GREFIYVDPMQ [PDGFRA_Y574_H570R_YF]; class 1

---

- target-desc: FGFR1 (UniProt P11362)
- Sequence (P11362 whole entry, looked up): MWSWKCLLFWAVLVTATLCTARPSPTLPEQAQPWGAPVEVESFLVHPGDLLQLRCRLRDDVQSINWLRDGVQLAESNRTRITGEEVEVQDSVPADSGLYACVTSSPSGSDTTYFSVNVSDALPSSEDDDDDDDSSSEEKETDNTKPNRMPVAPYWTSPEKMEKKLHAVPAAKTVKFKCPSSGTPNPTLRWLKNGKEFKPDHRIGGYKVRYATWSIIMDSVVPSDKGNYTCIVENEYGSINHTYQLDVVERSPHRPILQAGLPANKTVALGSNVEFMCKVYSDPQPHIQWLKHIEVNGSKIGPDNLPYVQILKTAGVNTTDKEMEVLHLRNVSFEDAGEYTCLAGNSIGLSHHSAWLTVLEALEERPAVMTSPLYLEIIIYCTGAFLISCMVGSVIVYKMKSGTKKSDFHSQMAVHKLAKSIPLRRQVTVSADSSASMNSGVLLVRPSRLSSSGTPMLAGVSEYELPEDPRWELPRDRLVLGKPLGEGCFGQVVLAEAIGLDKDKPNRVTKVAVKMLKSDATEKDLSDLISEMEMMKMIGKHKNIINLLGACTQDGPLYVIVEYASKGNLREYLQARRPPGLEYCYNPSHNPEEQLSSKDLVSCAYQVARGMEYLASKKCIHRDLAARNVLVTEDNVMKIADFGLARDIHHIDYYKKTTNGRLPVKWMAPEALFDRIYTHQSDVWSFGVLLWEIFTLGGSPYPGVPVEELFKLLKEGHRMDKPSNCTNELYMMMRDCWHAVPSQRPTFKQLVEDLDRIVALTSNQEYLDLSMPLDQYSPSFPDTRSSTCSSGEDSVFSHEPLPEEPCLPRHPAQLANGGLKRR
- assay-method-text: phosphorylation enrichment, bacterial display (enrichment ratio); higher = better substrate or ligand; peptides without Tyr show the background
reported-metric: phosphorylation enrichment

1) VKFLGYPPPEI [KDR_Y357_A352V_YF]; 0.398
2) MRTMGYMPREM [CABP5_Y62_T65R]; 0.397
3) WPQKLYNNFVN [MYO5C_Y526_L522P]; 0.445
4) IFCIQYNIRAF [MYH4_Y820]; 0.525
5) QRRFVYFFSFL [PTEN_Y176_YF]; 0.573
6) VHKKGYNKLNQ [ZNF676_Y98_E96K]; 0.494
7) SDPIVYTLENI [EMR1_Y534_I533V]; 0.553
8) VGNPAYRSFSN [IL4R_Y497_A492V]; 0.412
9) WKEIEYEVVPD [CPS1_Y634_R638P]; 0.7
10) TGDFGYRTPGF [TNS2_Y668_A670T_YF]; 0.438
11) TLSGIYQFIIA [FOXL2_Y81_YF]; 10.4
12) RGNMFYENSFA [EGFR_Y113_YF]; 0.785
13) LHRHAYPEQRQ [DPPA2_Y127]; 0.505
14) RLGNQHVNVMN [SLC3A1_Y461_Y461H]; 0.567

---

- target-desc: FGFR3 (UniProt P22607)
- Sequence (P22607 whole entry, looked up): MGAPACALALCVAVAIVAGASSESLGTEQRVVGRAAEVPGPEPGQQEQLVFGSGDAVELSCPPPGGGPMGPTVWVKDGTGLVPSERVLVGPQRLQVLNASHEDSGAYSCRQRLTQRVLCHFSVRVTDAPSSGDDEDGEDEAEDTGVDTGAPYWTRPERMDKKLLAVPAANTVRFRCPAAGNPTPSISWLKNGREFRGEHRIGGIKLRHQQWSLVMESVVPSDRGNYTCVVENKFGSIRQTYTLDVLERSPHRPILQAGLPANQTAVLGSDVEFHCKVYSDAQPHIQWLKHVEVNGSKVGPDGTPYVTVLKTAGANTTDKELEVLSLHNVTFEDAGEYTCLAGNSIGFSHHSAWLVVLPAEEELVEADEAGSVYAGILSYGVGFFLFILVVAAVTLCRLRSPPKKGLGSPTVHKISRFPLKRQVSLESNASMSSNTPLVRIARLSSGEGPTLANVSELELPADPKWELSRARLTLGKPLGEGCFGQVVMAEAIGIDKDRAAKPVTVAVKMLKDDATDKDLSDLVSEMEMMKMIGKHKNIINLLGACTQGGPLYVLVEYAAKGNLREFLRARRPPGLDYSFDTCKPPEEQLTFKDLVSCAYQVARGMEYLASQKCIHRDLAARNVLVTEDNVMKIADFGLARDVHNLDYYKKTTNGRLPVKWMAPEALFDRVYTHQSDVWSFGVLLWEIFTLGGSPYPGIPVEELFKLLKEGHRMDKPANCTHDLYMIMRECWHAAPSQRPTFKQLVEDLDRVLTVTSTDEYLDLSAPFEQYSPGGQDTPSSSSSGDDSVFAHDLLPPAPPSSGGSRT
- assay-method-text: phosphorylation enrichment, bacterial display (enrichment ratio); higher = better substrate or ligand; peptides without Tyr show the background
Note to self: values exactly at 0.8 are y. So phosphorylation enrichment at or above 0.8 is y, below is n.

1) TVINKYQGKLF [HGD_Y249]; n
2) QFRFIYMAVQH [PTPN11_Y515_YF]; y
3) CTTIHYNYMCD [TP53_Y234_N239D]; n
4) KACNPYKPPGP; n
5) RTEAQYRFIFM [PTPN11_Y511_Q506R_YF]; y
6) QLQTTYPSSDN [MAX_Y115_N114T]; n

---

- System: c-Abl (mouse)
- assay-method-text: phosphorylation enrichment, bacterial display (enrichment ratio); higher = better substrate or ligand; peptides without Tyr show the background
Entries and their phosphorylation enrichment values follow.
reported-metric: phosphorylation enrichment

1. THEVRYVSAGQ [SLCO4A1_Y77]; 0.485
2. KKKKQYKDKYL [CASK_Y708]; 0.837
3. DTNIAYWLHPR [POMT1_Y581]; 0.473
4. EQQNMYRLKVL [ABCC6_Y372]; 0.619
5. SLYPGYNFRYA [P2RX7_Y291]; 0.477
6. TGDFGYRTPGF [TNS2_Y668_A670T_YF]; 0.706
7. LAAAGYDVKKN [H1-3_Y72_E75K]; 0.414
8. DQIDTYELSGA [DNM1_Y354_G359A]; 0.681
9. VDDQIYFFRKP [PBRM1_Y1289_E1287Q_YF]; 3.29
10. KSSDVYVSFDC [SORL1_Y136_Y141C_YF]; 0.786
11. ALAHKHHGGGG [HBB_Y146_Y146H]; 0.569
12. GIVKAYYVHAR [AIPL1_Y267_R270H]; 0.569
13. CLGNQYVNVMN [SLC3A1_Y461_R456C]; 0.689
14. REVVNYVQKRN [RMI1_Y450]; 0.975
15. NYYDTYIKTCL [IQGAP2_Y1445]; 0.928
16. KTVQDYLEKFF [MMP8_Y36_YF]; 0.874
17. ITLPIYTKGSE [ANK2_Y1455_E1458G]; 0.446
18. ETKEDYEKILV [ANXA1_Y335_G333E]; 0.779
19. RSHRSYSCQVM [IGLL1_Y192_R189H]; 0.594
20. DVAKEYGHLLP [HRC_Y99_S96A]; 0.555
21. ENFDDYMKEVG [FABP4_Y20]; 0.707
22. QKKPRYEIRWK [PDGFRB_Y562]; 1.05
23. MSRYIYSTDYY [NTRK1_Y676_D674Y]; 0.879
24. KVGNEYVTKGQ [MYH7_Y410]; 0.469
25. VKKKLDEEIDQ [CYP17A1_Y329_Y329D]; 0.693
26. TIMTDYNPNYC [ALK_Y1092]; 0.923
27. SGIYQYSIAKF [FOXL2_Y83_I84S]; 7.69
28. KPNMNYDKLSW [FLI1_Y332_R337W]; 0.41
29. FLGRDYLETLM [DUS3L_Y610_YF]; 0.685

---

- Tested on: c-Src
- assay-method-text: phosphorylation enrichment, bacterial display (enrichment ratio); higher = better substrate or ligand; peptides without Tyr show the background
reported-metric: phosphorylation enrichment

1. STTIHYNYMCN [TP53_Y234_C229S]; 0.458
2. GDEEDYEEIPG [EGFR_opt_E_2015]; 0.598
3. HFGCVYFGTLL [MET_Y1093_H1094Y_YF]; 3.7
4. ALECLYRREKR [TEKT5_Y195_H196R]; 0.66
5. PARLEYCENEK [IRS1_Y46_Y47C]; 1.05
6. RRIHSYRGHLC [VHL_Y112_W117C]; 0.566
7. SYVVRYNQPRV [GRIN2D_Y736_M733V]; 0.405
8. TTPGPHRSIFF [MPG_Y71_Y71H_YF]; 0.303
9. GLCSFYETSKM [MAGED2_Y449_R446C_YF]; 0.83
10. ITLPIYTKGSE [ANK2_Y1455_E1458G]; 0.529
11. FIGVTYKNKED [PDGFRA_Y993_E996K_YF]; 0.426
12. NRDNTYNPVSE [FGA_Y127_R129P]; 0.522
13. SGGLDYGMVGG [TNRC6B_Y1382_M1380L]; 1.88

---

Entries and their phosphorylation enrichment values follow.
- target-desc: Jak2 (UniProt O60674)
- Sequence (O60674 whole entry, looked up): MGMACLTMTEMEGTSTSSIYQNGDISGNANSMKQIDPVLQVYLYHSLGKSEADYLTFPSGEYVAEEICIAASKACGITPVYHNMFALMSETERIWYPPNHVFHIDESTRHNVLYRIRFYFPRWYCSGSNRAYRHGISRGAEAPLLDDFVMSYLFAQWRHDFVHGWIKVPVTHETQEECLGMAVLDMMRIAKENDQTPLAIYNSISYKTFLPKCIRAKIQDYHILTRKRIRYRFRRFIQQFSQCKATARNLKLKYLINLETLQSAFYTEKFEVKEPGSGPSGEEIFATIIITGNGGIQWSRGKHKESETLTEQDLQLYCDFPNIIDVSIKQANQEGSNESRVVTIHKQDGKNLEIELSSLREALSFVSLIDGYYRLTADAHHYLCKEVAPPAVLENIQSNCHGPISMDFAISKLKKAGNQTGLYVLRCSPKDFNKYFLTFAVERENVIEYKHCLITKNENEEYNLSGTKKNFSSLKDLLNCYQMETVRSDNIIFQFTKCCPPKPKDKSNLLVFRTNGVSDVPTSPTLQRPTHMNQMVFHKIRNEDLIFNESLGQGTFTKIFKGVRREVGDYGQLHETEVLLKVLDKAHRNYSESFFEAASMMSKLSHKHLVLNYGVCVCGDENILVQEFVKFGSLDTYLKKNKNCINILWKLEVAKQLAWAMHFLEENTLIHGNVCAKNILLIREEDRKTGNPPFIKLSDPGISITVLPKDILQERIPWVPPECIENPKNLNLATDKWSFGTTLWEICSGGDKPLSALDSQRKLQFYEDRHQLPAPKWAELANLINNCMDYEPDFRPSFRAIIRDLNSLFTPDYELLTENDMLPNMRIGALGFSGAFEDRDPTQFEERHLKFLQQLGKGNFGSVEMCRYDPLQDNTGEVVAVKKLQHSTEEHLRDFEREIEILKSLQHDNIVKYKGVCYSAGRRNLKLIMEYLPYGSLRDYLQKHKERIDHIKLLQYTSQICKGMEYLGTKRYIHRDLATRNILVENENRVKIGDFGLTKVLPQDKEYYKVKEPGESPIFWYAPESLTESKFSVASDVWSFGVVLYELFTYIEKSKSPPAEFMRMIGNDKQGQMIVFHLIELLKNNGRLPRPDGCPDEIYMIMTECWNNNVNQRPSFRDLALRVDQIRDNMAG
- assay-method-text: phosphorylation enrichment, bacterial display (enrichment ratio); higher = better substrate or ligand; peptides without Tyr show the background
reported-metric: phosphorylation enrichment

1. GGDQPYSGAGD [TYRO3_Y828_R824G]; 0.775
2. SSYDTYHLSRE [KIR3DL2_Y253_I252T]; 0.527
3. PEADKYCLTFA [FGG_Y300_R301C_YF]; 1.71
4. VVQGLYKSMPK [KBTBD2_Y250]; 0.516
5. FTFDPYSEEEP [IL2RB_Y387_D391E_YF]; 0.917
6. WFPSTYVEEDE [VAV3_Y842]; 1.42
7. LQLLGHRPVYS [CHST6_Y358_Y358H]; 0.552
8. STEVIYQPRRK [STK11_Y36]; 0.612
9. FIGVTYKNKED [PDGFRA_Y993_E996K_YF]; 0.797
10. IKKFKYGIEEH [GJA1_Y137]; 0.582
11. QRKRAYVEIEF [MAK16_Y282_YF]; 0.723
12. PSARTYCYKQE [KLHDC9_Y175]; 0.762
13. SVCPDYDLCSV [SQSTM1_Y148]; 1.3
14. VHVEVYDRPSP; 1.01
15. SLLTDYSPQLQ [OTC_Y345]; 0.788
16. FLAVGYHKPFI [IDS_Y225_H229Y_YF]; 1.29
17. VNTTLYEKFTF [TEK_Y1108_YF]; 0.891
18. TTSQLYDAMPI [PDPK1_Y9_V12M]; 0.665
19. LGKGSYAKVKS [TSSK2_Y23]; 1.54
20. GEKKAYVRLAP [RPL23A_Y137]; 0.468
21. EPYKVYRIVPE [IRF8_Y110]; 0.658
22. VERRVYAEDPF [PCCA_Y401_C398R_YF]; 0.674
23. LSQAKYQIRYR [CRLF1_Y272_F268S]; 0.711
24. ALTDNYMFVVI [HAGH_Y61_L64V_YF]; 1.3
25. AGQEDCDRLRP [CDC42_Y64_Y64C]; 0.682
26. EWCSPYGLTPR [GRIN3B_Y601_R598C]; 0.778
27. DDPRRYQKYGY [OAS1_Y362]; 0.507
28. SERNNYSRVAN [CWC22_Y797]; 0.461
29. RALCHYYKLNI [ETV6_Y401_R399C]; 6.35
